target: T1, Ala mutant of TA0096, SEQ ID NO: 34; assay: ELISA, alanine scan (position 347)
T1 peptide: EENMDDQAMQDEMEIGY
Observation type: binding result

1. G6 (antibody, V domains shown, Chicken variable regions in a mouse chimeric antibody (IgG1); also called anti-PAD4 antibody G6) VH: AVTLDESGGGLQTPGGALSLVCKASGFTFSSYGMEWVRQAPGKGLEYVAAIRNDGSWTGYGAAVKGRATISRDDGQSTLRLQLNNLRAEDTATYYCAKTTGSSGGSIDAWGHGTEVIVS VL: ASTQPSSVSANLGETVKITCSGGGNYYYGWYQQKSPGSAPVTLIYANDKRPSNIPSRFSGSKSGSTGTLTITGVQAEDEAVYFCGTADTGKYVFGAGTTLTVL : no binding
2. G8 (antibody, V domains shown, Chicken variable regions in a mouse chimeric antibody (IgG1); also called anti-PAD4 antibody G8) VH: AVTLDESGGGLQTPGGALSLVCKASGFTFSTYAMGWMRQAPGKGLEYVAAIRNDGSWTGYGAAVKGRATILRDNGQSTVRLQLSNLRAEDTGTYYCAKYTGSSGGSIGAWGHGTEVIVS VL: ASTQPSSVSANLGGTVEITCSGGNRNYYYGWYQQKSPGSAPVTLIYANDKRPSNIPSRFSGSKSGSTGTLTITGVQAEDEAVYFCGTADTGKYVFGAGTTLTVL : no binding
3. H7 (antibody, V domains shown, Chicken variable regions in a mouse chimeric antibody (IgG1); also called anti-PAD4 antibody H7) VH: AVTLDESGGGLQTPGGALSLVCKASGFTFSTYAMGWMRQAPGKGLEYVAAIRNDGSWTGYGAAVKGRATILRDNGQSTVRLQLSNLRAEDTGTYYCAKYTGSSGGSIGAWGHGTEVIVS VL: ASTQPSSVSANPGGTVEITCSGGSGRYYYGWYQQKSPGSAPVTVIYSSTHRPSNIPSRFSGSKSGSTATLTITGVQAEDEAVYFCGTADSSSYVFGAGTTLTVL : no binding
